B1: Azoarcus group I ribozyme (parent)
chain: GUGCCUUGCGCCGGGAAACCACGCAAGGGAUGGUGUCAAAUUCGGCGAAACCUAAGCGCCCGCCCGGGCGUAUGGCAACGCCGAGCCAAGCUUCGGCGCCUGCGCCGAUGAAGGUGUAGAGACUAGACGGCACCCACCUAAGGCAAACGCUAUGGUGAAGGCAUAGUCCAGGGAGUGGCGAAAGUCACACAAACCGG

# Variants of: B1
# Test Name: reverse-splicing fitness (ratio to wild type); higher = more active; in vitro selection; Mg2+ level not given
Rule: reverse-splicing fitness under 0.008 gives false, otherwise true.

C82U A111U A120U C150U C169A U176C    false
C82U A111U A120C A145G U176G    false
C82A A111G A145G C150A U176G    true
A111U A120G A145U C169U U176G    false
C82U A120C C169G U176C    true
C82A A111U A120G C150U C169U U176G    false

Enquiry: Is reverse-splicing fitness at least 0.008? Consider C82U A111G A120G A145C C150G C169U U176C
Return: true

Enquiry: Is reverse-splicing fitness at least 0.008? Consider A111C A145G C169G U176C
Return: true

Enquiry: Is reverse-splicing fitness at least 0.008? Consider A120G A145G C150U C169A U176C
Return: true

Enquiry: Is reverse-splicing fitness at least 0.008? Consider C82U A111C C150A C169G U176C
Return: true
